From: patent US5654274A

Assay: Inhibition of lipopolysaccharide binding to dye (LPS50)
Parameters: species or system E. coli
Settings: concentration of peptide necessary to inhibit the binding of 50% of the lipopolysaccharide to the dye; absorbance at 460 nm and 510 nm
Square brackets hold non-standard residues; d marks the D form. Peptide text beside a SMILES is read from it. * marks the point of attachment. Octanoyl = CCCCCCCC(=O)*
measured-endpoint: log10 LPS50 (log10 of the value in µg/mL)
# log10 transformed; quantity=LPS50; unit=µg/mL

Recorded results for 9 compounds are shown here.
[[record]]
compound = "CCCCCCCC(=O)N[C@@H](C)C(=O)N[C@@H](CCCCN)C(=O)N[C@@H](CCCCN)C(=O)N[C@@H](CC(C)C)C(=O)N[C@@H](CC(C)C)C(=O)N[C@@H](CCCCN)C(=O)N[C@@H](CCCCN)C(=O)N[C@@H](CC(C)C)C(=O)N[C@@H](CCCCN)C(=O)N[C@@H](CCCCN)C(=O)N[C@@H](CC(C)C)C(N)=O [Oct-(SEQ ID NO: 111)-NH2] (Octanoyl-AKKLLKKLKKL-NH2)"
reported_value = 0.00

[[record]]
compound = "CCCCCCCC(=O)N[C@@H](CCCCN)C(=O)N[C@@H](CCCCN)C(=O)N[C@@H](CC(C)C)C(=O)N[C@@H](C)C(=O)N[C@@H](CCCCN)C(=O)N[C@@H](CC(C)C)C(=O)N[C@@H](C)C(=O)N[C@@H](CCCCN)C(=O)N[C@@H](CCCCN)C(=O)N[C@@H](CC(C)C)C(=O)N[C@@H](C)C(N)=O [Oct-(SEQ ID NO: 123)-NH2] (Octanoyl-KKLAKLAKKLA-NH2)"
reported_value = 0.23

[[record]]
compound = "CCCCCCCC(=O)N[C@@H](CC(C)C)C(=O)N[C@@H](CCCCN)C(=O)N[C@@H](CCCCN)C(=O)N[C@@H](CC(C)C)C(=O)N[C@@H](CCCCN)C(=O)N[C@@H](CCCCN)C(=O)N[C@@H](CC(C)C)C(N)=O [Oct-(SEQ ID NO: 106)-NH2] (Octanoyl-LKKLKKL-NH2)"
reported_value = 0.83

[[record]]
compound = "CCCCCCCC(=O)N[C@@H](CC(C)C)C(=O)N[C@@H](CCCCN)C(=O)N[C@@H](CCCCN)C(=O)N[C@@H](CC(C)C)C(=O)N[C@@H](CC(C)C)C(=O)N[C@@H](CCCCN)C(=O)N[C@@H](CCCCN)C(N)=O [Oct-(SEQ ID NO: 137)-NH2] (Octanoyl-LKKLLKK-NH2)"
reported_value = 0.68

[[record]]
compound = "CCCCCCCC(=O)N[C@@H](CC(C)C)C(=O)N[C@@H](CCCCN)C(=O)N[C@@H](CCCCN)C(=O)N[C@@H](CC(C)C)C(=O)N[C@@H](CC(C)C)C(=O)N[C@@H](CCCCN)C(=O)N[C@@H](CCCCN)C(=O)N[C@@H](CC(C)C)C(=O)N[C@@H](CCCCN)C(=O)N[C@@H](CCCCN)C(=O)N[C@@H](CC(C)C)C(N)=O [Oct-(SEQ ID NO: 110)-NH2] (Octanoyl-LKKLLKKLKKL-NH2)"
reported_value = -0.08

[[record]]
compound = "CCCCCCCC(=O)N[C@@H](CC(C)C)C(=O)N[C@@H](CC(C)C)C(=O)N[C@@H](CCCCN)C(=O)N[C@@H](CCCCN)C(=O)N[C@@H](CC(C)C)C(=O)N[C@@H](CCCCN)C(=O)N[C@@H](CCCCN)C(=O)N[C@@H](CC(C)C)C(N)=O [Oct-(SEQ ID NO: 107)-NH2] (Octanoyl-LLKKLKKL-NH2)"
reported_value = 1.18

[[record]]
compound = "CCCCCCCC(=O)N[C@@H](CC(C)C)C(=O)N[C@@H](CCCCN)C(=O)N[C@@H](CCCCN)C(=O)N[C@@H](CC(C)C)C(=O)N[C@@H](CC(C)C)C(=O)N[C@@H](CCCCN)C(=O)N[C@@H](CC(C)C)C(=O)N[C@@H](CC(C)C)C(=O)N[C@@H](CCCCN)C(N)=O [Oct-(SEQ ID NO: 138)-NH2] (Octanoyl-LKKLLKLLK-NH2)"
reported_value = 0.00

[[record]]
compound = "CCCCCCCC(=O)N[C@@H](CCCCN)C(=O)N[C@@H](Cc1ccccc1)C(=O)N[C@@H](C)C(=O)N[C@@H](CCCCN)C(=O)N[C@@H](Cc1ccccc1)C(=O)N[C@@H](C)C(=O)N[C@@H](CCCCN)C(=O)N[C@@H](CCCCN)C(=O)N[C@@H](Cc1ccccc1)C(=O)N[C@@H](C)C(N)=O [Oct-(SEQ ID NO: 121)-NH2] (Octanoyl-KFAKFAKKFA-NH2)"
reported_value = 1.30

[[record]]
compound = "CCCCCCCC(=O)N[C@@H](CCCCN)C(=O)N[C@@H](CCCCN)C(=O)N[C@@H](CC(C)C)C(=O)N[C@@H](CC(C)C)C(=O)N[C@@H](CCCCN)C(=O)N[C@@H](CCCCN)C(=O)N[C@@H](CC(C)C)C(=O)N[C@@H](CCCCN)C(=O)N[C@@H](CCCCN)C(=O)N[C@@H](CC(C)C)C(N)=O [Oct-(SEQ ID NO: 109)-NH2] (Octanoyl-KKLLKKLKKL-NH2)"
reported_value = -0.22


Okay, next one:
QUERY: Bench note: what log10 LPS50 did CCCCCCCC(=O)N[C@H](CC(C)C)C(=O)N[C@H](CCCCN)C(=O)N[C@H](CCCCN)C(=O)N[C@H](CC(C)C)C(=O)N[C@H](CC(C)C)C(=O)N[C@H](CCCCN)C(=O)N[C@H](CCCCN)C(=O)N[C@H](CC(C)C)C(=O)N[C@H](CCCCN)C(=O)N[C@H](CCCCN)C(=O)N[C@H](CC(C)C)C(N)=O [Oct-D-(SEQ ID NO: 110)-NH2] (Octanoyl-[dL][dK][dK][dL][dL][dK][dK][dL][dK][dK][dL]-NH2) show?
RESULT: -0.01
